procedure_summary: Terminal elimination half-life in monkey after administration of intravenous dosage
Type: ADME, organism-based
condition_label: cercopithecidae, in vivo
observation_type: half-life (min)

>>> recorded_value("CCOC(=O)[C@H](C)NP(=O)(OC[C@@H]1C=C[C@H](n2cnc3c(NC4CC4)nc(N)nc32)C1)Oc1ccccc1 (stereo partly specified)")
6.6

====

Tested on: HEL
procedure_summary: Cytostatic concentration required to inhibit HEL cell proliferation
Type: functional
condition_label: Homo sapiens
observation_type: CC50

>>> recorded_value("COC(=O)[C@@H](C)NP(=O)(OC[C@@H]1C=C[C@H](n2cnc3c(O)nc(N)nc32)C1)Oc1ccccc1 (some centres undefined)")
"160 µM"
>>> recorded_value("Nc1nc(NC2CC2)c2ncn([C@H]3C=C[C@@H](CO)C3)c2n1")
"200 µM"
>>> recorded_value("Nc1nc2c(ncn2[C@H]2C=C[C@@H](CO)C2)c(=O)[nH]1")
"15 µM"
>>> recorded_value("Nc1nc(NC2CC2)c2ncn([C@H]3C=C[C@@H](COP(=O)(O)O)C3)c2n1")
"110 µM"

Taken from ChEMBL document CHEMBL1139507.
